System: HCT-116 colon
test description: NCI tumour cell line growth inhibition, 48 h
measured attribute: TGI

>  <compound>
C=C1C(=O)OC2/C=C(/C)C3(O)OC(C)(CC(OC(=O)C(C)C)C12)CC3OC(C)=O (centres undefined)

>  <measured attribute>
TGI

>  <value observed>
> 100 µM

$$$$
>  <compound>
O=C(O)CSC(NC(=O)C(C(F)(F)F)C(F)(F)F)(C(F)(F)F)C(F)(F)F

>  <measured attribute>
TGI

>  <value observed>
> 100 µM

$$$$
>  <compound>
CCCOC(=O)NC(C)C(=O)NC(CCC(=O)NC(CCCC(N)C(=O)O)C(=O)NC(C)C(=O)O)C(=O)O (centres undefined)

>  <measured attribute>
TGI

>  <value observed>
> 100 µM

$$$$
>  <compound>
O/C(=C\c1nc2ccccc2nc1NC12CC3CC(CC(C3)C1)C2)c1ccc(Br)cc1

>  <measured attribute>
TGI

>  <value observed>
> 10 µM

$$$$
>  <compound>
Oc1ccc(Br)cc1C=Nc1ccc(N=Cc2cc(Br)ccc2O)cc1

>  <measured attribute>
TGI

>  <value observed>
> 100 µM

$$$$
>  <compound>
O=C(O)CSc1n[nH]c(Cc2ccccc2)n1

>  <measured attribute>
TGI

>  <value observed>
> 100 µM

$$$$
>  <compound>
Nc1ccccc1SC1CC(=O)N(c2ccc(Cl)c(Cl)c2)C1=O (centres undefined)

>  <measured attribute>
TGI

>  <value observed>
> 100 µM

$$$$
>  <compound>
COC(C(=O)[C@@H](O)[C@@H](C)O)[C@@H]1Cc2cc3cc(O[C@H]4C[C@@H](O[C@H]5C[C@@H](O)[C@H](O)C(C)O5)[C@H](O)C(C)O4)c(C)c(O)c3c(O)c2C(=O)[C@H]1O[C@H]1C[C@@H](O[C@H]2C[C@@H](O[C@H]3C[C@@H](O)[C@H](OC)C(C)O3)[C@@H](O)C(C)O2)[C@H](O)C(C)O1 (some centres undefined)

>  <measured attribute>
TGI

>  <value observed>
> 33.3 µM

$$$$
>  <compound>
COC(=O)C1=C(O)C(C(=O)OC)[C@@]2(O)[C@@H](C(=O)OC)[C@H](C)[C@@H](C)[C@@H]1[C@@H]2C(=O)OC (some centres undefined)

>  <measured attribute>
TGI

>  <value observed>
> 100 µM

$$$$

---

Test system: TK-10 renal
test description: NCI tumour cell line growth inhibition, 48 h

>  <structure string>
Clc1cc(Cl)cc(Nc2ccc3cc(OCCCN4CCOCC4)ccc3n2)c1

>  <GI50>
2.88 µM

$$$$
>  <structure string>
c1csc(-c2c3ccc(=[N+]4CCCCC4)cc-3oc3cc(N4CCCCC4)ccc23)c1

>  <GI50>
0.15 µM

$$$$
>  <structure string>
C[C@]12CC[C@@H]3c4ccc(O)c([N+](=O)[O-])c4CC[C@H]3[C@@H]1CC[C@@H]2NS(=O)(=O)c1cccc(Br)c1

>  <GI50>
2.92 µM

$$$$
>  <structure string>
O=C1C(Cl)=C(Nc2ccccc2O)C(=O)N1Cc1ccccc1

>  <GI50>
28.7 µM

$$$$
>  <structure string>
O=c1[nH]c(=O)n([C@H]2CCCO2)cc1F

>  <GI50>
1880 µM

$$$$
>  <structure string>
COc1ccc(-c2csc(NC(=O)CSc3nc(C)c(-c4ccccc4)n3Nc3ccccc3)n2)cc1

>  <GI50>
> 100 µM

$$$$

Recorded values, source PubChem BioAssay (NCI).
